target-entity: hKIF18A (1-374) (Homo sapiens (Human), UniProt Q8NI77)
Sequence (Q8NI77 1-374): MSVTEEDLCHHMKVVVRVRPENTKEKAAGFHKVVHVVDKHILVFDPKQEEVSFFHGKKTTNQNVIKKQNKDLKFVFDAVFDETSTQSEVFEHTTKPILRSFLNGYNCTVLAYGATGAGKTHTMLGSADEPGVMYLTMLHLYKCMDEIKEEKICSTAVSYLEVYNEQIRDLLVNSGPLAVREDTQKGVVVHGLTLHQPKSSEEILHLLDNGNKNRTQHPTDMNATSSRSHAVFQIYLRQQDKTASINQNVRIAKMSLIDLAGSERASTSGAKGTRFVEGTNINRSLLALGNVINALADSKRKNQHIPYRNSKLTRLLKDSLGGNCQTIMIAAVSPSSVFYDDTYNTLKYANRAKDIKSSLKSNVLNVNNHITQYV

compound: CC1CCN(c2cc(NS(=O)(=O)CCO)ccc2-n2cc(-c3cncc(N4CCC(F)(F)CC4)n3)nn2)CC1 [Compound 143]
target-entity: hKIF18A (1-374) (Homo sapiens (Human), UniProt Q8NI77)
IC50 [µM]: 0.0055
//
compound: O=S(=O)(CCO)Nc1ccc(-n2cc(-c3ccc(C4CCCC4)o3)nn2)c(N2CCC3(CC2)CC3)c1 [Compound 126]
target-entity: hKIF18A (1-374) (Homo sapiens (Human), UniProt Q8NI77)
IC50 [µM]: 0.071
//
compound: CS(=O)(=O)Nc1ccc(-n2cc(-c3cccc(N4CC5CC(C4)O5)n3)nn2)c(N2CCC3(CC2)CC3)c1 [Compound 55]
target-entity: hKIF18A (1-374) (Homo sapiens (Human), UniProt Q8NI77)
IC50 [µM]: 0.029
//
compound: CC(C)(C)NS(=O)(=O)c1cccc(-c2cnc(-c3ccc(NS(C)(=O)=O)cc3N3CCC4(CC3)CC4)[nH]2)c1 [Compound 34]
target-entity: hKIF18A (1-374) (Homo sapiens (Human), UniProt Q8NI77)
IC50 [µM]: 0.074
//
compound: CS(=O)(=O)Nc1ccc(-n2cc(-c3cccc(N4CCC(F)(F)CC4)n3)nn2)c(N2CCCCCC2)c1 [Compound 52]
target-entity: hKIF18A (1-374) (Homo sapiens (Human), UniProt Q8NI77)
IC50 [µM]: 0.018
//
compound: O=S(=O)(CCO)Nc1ccc(-n2cc(-c3nc(C4=CCC(F)(F)CC4)ccc3F)nn2)c(N2CCC3(CC2)CC3)c1 [Compound 159]
target-entity: hKIF18A (1-374) (Homo sapiens (Human), UniProt Q8NI77)
IC50 [µM]: 0.014
//
compound: O=S(=O)(CCO)Nc1ccc(-n2cc(-c3ccc(F)c(N4CCC(F)(F)CC4)n3)nn2)c(N2CCC3(CC2)CC3)c1 [Compound 79]
target-entity: hKIF18A (1-374) (Homo sapiens (Human), UniProt Q8NI77)
IC50 [µM]: 0.015
//
compound: CS(=O)(=O)Nc1ccc(-n2cc(-c3csc(N4CCC(F)(F)CC4)n3)nn2)c(N2CCC3(CC2)CC3)c1 [Compound 50]
target-entity: hKIF18A (1-374) (Homo sapiens (Human), UniProt Q8NI77)
IC50 [µM]: 0.0072
//
compound: Cc1cc(N2CCC(F)(F)CC2)nc(-n2cc(-c3ccc(NS(=O)(=O)CCO)cc3N3CCC4(CC3)CC4)nn2)c1 [Compound 95]
target-entity: hKIF18A (1-374) (Homo sapiens (Human), UniProt Q8NI77)
IC50 [µM]: 0.038
//
compound: Cc1cc(-c2cn(-c3ccc(NS(=O)(=O)CCO)cc3N3CCC4(CC3)CC4)nn2)nc(N2CCC(F)(F)CC2)c1 [Compound 48]
target-entity: hKIF18A (1-374) (Homo sapiens (Human), UniProt Q8NI77)
IC50 [µM]: 0.017
//
compound: CCOC(=O)CS(=O)(=O)Nc1ccc(-c2nnc(-c3cccc(N4CCC(F)(F)CC4)n3)[nH]2)c(N2CCC3(CC2)CC3)c1 [Compound 7]
target-entity: hKIF18A (1-374) (Homo sapiens (Human), UniProt Q8NI77)
IC50 [µM]: 0.083
//
compound: CC1CN(c2cccc(-c3cn(-c4ccc(NS(C)(=O)=O)cc4N4CCC5(CC4)CC5)nn3)n2)CCO1 (centres unmarked) [Compound 56]
target-entity: hKIF18A (1-374) (Homo sapiens (Human), UniProt Q8NI77)
IC50 [µM]: 0.013
//
compound: Cc1cc(-c2nnc(-c3ccc(NS(C)(=O)=O)cc3N3CCC4(CC3)CC4)[nH]2)nc(N2CCOCC2)n1 [Compound 6]
target-entity: hKIF18A (1-374) (Homo sapiens (Human), UniProt Q8NI77)
IC50 [µM]: 0.025
//
compound: O=S(=O)(CCO)Nc1ccc(-n2cc(-c3csc(N4CCC(F)(F)CC4)n3)nn2)c(N2CCC3(CC2)CC3)c1 [Compound 69]
target-entity: hKIF18A (1-374) (Homo sapiens (Human), UniProt Q8NI77)
IC50 [µM]: 0.006
